subject.of.test: PTP1B (Homo sapiens (Human), UniProt P18031)
Sequence (P18031 whole entry, species assumed): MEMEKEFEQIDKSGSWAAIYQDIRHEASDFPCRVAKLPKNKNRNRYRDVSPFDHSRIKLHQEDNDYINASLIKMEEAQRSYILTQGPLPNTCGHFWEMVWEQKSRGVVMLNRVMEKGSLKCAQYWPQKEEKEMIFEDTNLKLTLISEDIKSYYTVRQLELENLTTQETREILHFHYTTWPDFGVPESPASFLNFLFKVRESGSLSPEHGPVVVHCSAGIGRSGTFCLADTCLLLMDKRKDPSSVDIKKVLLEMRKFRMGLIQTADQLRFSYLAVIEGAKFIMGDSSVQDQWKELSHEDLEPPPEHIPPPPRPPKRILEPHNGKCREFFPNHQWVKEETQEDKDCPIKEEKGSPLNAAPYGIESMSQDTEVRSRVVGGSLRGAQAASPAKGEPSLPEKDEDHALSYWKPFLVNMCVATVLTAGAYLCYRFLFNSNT
run.description: Experiment of PTP1B inhibition (p-NPP dephosphorylation)
Assay type: biochemical
measurement.parameters: 2 mM p-NPP substrate, 30° C., 30 minutes
pIC50: −log10 of the molar value.
Listed compounds paired with reported pIC50
measured.parameter: pIC50

- CC1(C)C=Cc2c(ccc3c2OC[C@@H](c2ccc(O)cc2O)C3)O1 [Glabridin, glabridin, reference compound]: 4.32
- Cc1ccc(C2COc3c(ccc4c3CCC(C)(C)O4)C2)c(O)c1 (stereo not shown) [Compound 3]: 5.15
- CCOc1ccc(C2COc3c(ccc4c3CCC(C)(C)O4)C2)c(O)c1 (stereo not shown) [Compound 15]: 5.07
- CCCCOc1ccc(C2COc3c(ccc4c3CCC(C)(C)O4)C2)c(O)c1 (stereo not shown) [Compound 18]: 5.47
- CCCCCOc1ccc(C2COc3c(ccc4c3CCC(C)(C)O4)C2)c(O)c1 (stereo not shown) [Compound 19]: 5.92
- CCCc1ccc(C2COc3c(ccc4c3CCC(C)(C)O4)C2)c(O)c1 (stereo not shown) [Compound 5]: 5.55
- CC1(C)CCc2c(ccc3c2OC[C@@H](c2ccc(O)cc2O)C3)O1 [Compound 1, 3″,4″-dihydroglabridin]: 4.34

* * *

Test system: DIO mice
run.description: Anti-obesity effect for DIO mice (body weight)
Assay type: in vivo, C57BL/6 mice
measurement.parameters: Mus musculus, 672 h; 4 weeks, 150 mg/kg, oral gavage once daily
measured.parameter: inhibition in vivo at 150 mg/kg (%)

* CC1(C)CCc2c(ccc3c2OC[C@@H](c2ccc(O)cc2O)C3)O1 [Compound 1, 3″,4″-dihydroglabridin] | 8
* CCCCc1ccc(C2COc3c(ccc4c3CCC(C)(C)O4)C2)c(O)c1 (centres unmarked) [Compound 7] | 14
* COCOc1ccc(C2COc3c(ccc4c3CCC(C)(C)O4)C2)c(O)c1 (centres unmarked) [Compound 21] | 16
* CCCc1ccc(C2COc3c(ccc4c3CCC(C)(C)O4)C2)c(O)c1 (centres unmarked) [Compound 5] | 19
* CCOc1ccc(C2COc3c(ccc4c3CCC(C)(C)O4)C2)c(O)c1 (centres unmarked) [Compound 15] | 14
* CC1(C)C=Cc2c(ccc3c2OC[C@@H](c2ccc(O)cc2O)C3)O1 [Glabridin, glabridin, reference compound] | 2
* CCCOc1ccc(C2COc3c(ccc4c3CCC(C)(C)O4)C2)c(O)c1 (centres unmarked) [Compound 16] | 7
* COc1ccc(C2COc3c(ccc4c3CCC(C)(C)O4)C2)c(O)c1 (centres unmarked) [Compound 14] | 12
* CCc1ccc(C2COc3c(ccc4c3CCC(C)(C)O4)C2)c(O)c1 (centres unmarked) [Compound 4] | 18
* COCCc1ccc(C2COc3c(ccc4c3CCC(C)(C)O4)C2)c(O)c1 (centres unmarked) [Compound 9] | 10
* Cc1cc(O)c(C2COc3c(ccc4c3CCC(C)(C)O4)C2)cc1C (centres unmarked) [Compound 11] | 8

* * *

Tested on: DIO mice
run.description: Organ weights and blood biochemistry of DIO mice after 28 days of administration
Format: in vivo, C57BL/6 mice
measurement.parameters: 150 mg/kg, experiment without parenthesis
measured.parameter: BMI

* COCOc1ccc(C2COc3c(ccc4c3CCC(C)(C)O4)C2)c(O)c1 (centres unmarked) [Compound 21] | 3.6
* CC1(C)C=Cc2c(ccc3c2OC[C@@H](c2ccc(O)cc2O)C3)O1 [Glabridin, glabridin, reference compound] | 4.2
* COc1ccc(C2COc3c(ccc4c3CCC(C)(C)O4)C2)c(O)c1 (centres unmarked) [Compound 14] | 3.9
* CCOc1ccc(C2COc3c(ccc4c3CCC(C)(C)O4)C2)c(O)c1 (centres unmarked) [Compound 15] | 3.6
* CC1(C)CCc2c(ccc3c2OC[C@@H](c2ccc(O)cc2O)C3)O1 [Compound 1, 3″,4″-dihydroglabridin] | 3.8

* * *

A collection of molecules and their measured concentration of compound remaining
run.description: Chemical stability in 1% NaOH in MeOH (HPLC)
Format: physicochemical
measurement.parameters: 48 h
measured.parameter: concentration of compound remaining

• CC1(C)C=Cc2c(ccc3c2OC[C@@H](c2ccc(O)cc2O)C3)O1 [Glabridin, glabridin, reference compound] = 23%
• CCCc1ccc(C2COc3c(ccc4c3CCC(C)(C)O4)C2)c(O)c1 (stereo not shown) = 100%
• CCOc1ccc(C2COc3c(ccc4c3CCC(C)(C)O4)C2)c(O)c1 (stereo not shown) = 98%
• CCc1ccc(C2COc3c(ccc4c3CCC(C)(C)O4)C2)c(O)c1 (stereo not shown) = 99%

* * *

run.description: Chemical stability in 1% HCl in MeOH (HPLC)
Assay type: physicochemical
measurement.parameters: 72 h
Entries and their concentration of compound remaining values follow.
measured.parameter: concentration of compound remaining (%)

• CC1(C)C=Cc2c(ccc3c2OC[C@@H](c2ccc(O)cc2O)C3)O1 [Glabridin, glabridin, reference compound] = 74
• CCc1ccc(C2COc3c(ccc4c3CCC(C)(C)O4)C2)c(O)c1 (stereo not shown) = 100
• CCCc1ccc(C2COc3c(ccc4c3CCC(C)(C)O4)C2)c(O)c1 (stereo not shown) = 101
• CCOc1ccc(C2COc3c(ccc4c3CCC(C)(C)O4)C2)c(O)c1 (stereo not shown) = 100

* * *

run.description: Chemical stability in 1% HCl in MeOH (HPLC)
Type: physicochemical
measurement.parameters: 8 h
Documented concentration of compound remaining across a set of compounds
measured.parameter: concentration of compound remaining (%)

• CC1(C)C=Cc2c(ccc3c2OC[C@@H](c2ccc(O)cc2O)C3)O1 [Glabridin, glabridin, reference compound] = 99
• CCCc1ccc(C2COc3c(ccc4c3CCC(C)(C)O4)C2)c(O)c1 (stereo not shown) = 102
• CCOc1ccc(C2COc3c(ccc4c3CCC(C)(C)O4)C2)c(O)c1 (stereo not shown) = 98
• CCc1ccc(C2COc3c(ccc4c3CCC(C)(C)O4)C2)c(O)c1 (stereo not shown) = 99

* * *

Test system: DIO mice
run.description: Organ weights and blood biochemistry of DIO mice after 28 days of administration
Type: in vivo, C57BL/6 mice
measurement.parameters: 150 mg/kg, experiment without parenthesis
// values below are reported LDL
measured.parameter: LDL (mg/dL)

- CCOc1ccc(C2COc3c(ccc4c3CCC(C)(C)O4)C2)c(O)c1 (centres unmarked): 10
- COc1ccc(C2COc3c(ccc4c3CCC(C)(C)O4)C2)c(O)c1 (centres unmarked): 13
- CC1(C)CCc2c(ccc3c2OC[C@@H](c2ccc(O)cc2O)C3)O1 [Compound 1, 3″,4″-dihydroglabridin]: 11
- COCOc1ccc(C2COc3c(ccc4c3CCC(C)(C)O4)C2)c(O)c1 (centres unmarked): 12
- CC1(C)C=Cc2c(ccc3c2OC[C@@H](c2ccc(O)cc2O)C3)O1 [Glabridin, glabridin, reference compound]: 10

* * *

run.description: Chemical stability in 1% HCl in MeOH (HPLC)
Type: physicochemical
measurement.parameters: 48 h
Overview of recorded concentration of compound remaining for various compounds
measured.parameter: concentration of compound remaining (%)

- CCc1ccc(C2COc3c(ccc4c3CCC(C)(C)O4)C2)c(O)c1 (stereo not shown): 101
- CCCc1ccc(C2COc3c(ccc4c3CCC(C)(C)O4)C2)c(O)c1 (stereo not shown): 101
- CC1(C)C=Cc2c(ccc3c2OC[C@@H](c2ccc(O)cc2O)C3)O1 [Glabridin, glabridin, reference compound]: 82
- CCOc1ccc(C2COc3c(ccc4c3CCC(C)(C)O4)C2)c(O)c1 (stereo not shown): 98

* * *

run.description: Chemical stability in 1% NaOH in MeOH (HPLC)
Type: physicochemical
measurement.parameters: 72 h
Procedure: The relative chemical stability of glabridin of Preparation Example 1, Example 3 (Compound 4), Example 4 (Compound 5) and Example 14 (Compound 15) were compared with each other. […] At this time, the concentrations of the compounds remaining in 1% HCl in MeOH and 1% NaOH in MeOH were determined using an internal standard (Compound 14 of Example 13). […]
measured.parameter: concentration of compound remaining (%)

* CCc1ccc(C2COc3c(ccc4c3CCC(C)(C)O4)C2)c(O)c1 (stereo not shown) [Compound 4] | 100
* CC1(C)C=Cc2c(ccc3c2OC[C@@H](c2ccc(O)cc2O)C3)O1 [Glabridin, glabridin, reference compound] | 13
* CCCc1ccc(C2COc3c(ccc4c3CCC(C)(C)O4)C2)c(O)c1 (stereo not shown) [Compound 5] | 102
* CCOc1ccc(C2COc3c(ccc4c3CCC(C)(C)O4)C2)c(O)c1 (stereo not shown) [Compound 15] | 100

* * *

Liver (g), weight of liver: recorded values
Tested on: DIO mice
run.description: Organ weights and blood biochemistry of DIO mice after 28 days of administration
Assay type: in vivo, C57BL/6 mice
measurement.parameters: 150 mg/kg, experiment without parenthesis
measured.parameter: Liver (g), weight of liver

• CC1(C)C=Cc2c(ccc3c2OC[C@@H](c2ccc(O)cc2O)C3)O1 [Glabridin, glabridin, reference compound] = 1.23
• CCOc1ccc(C2COc3c(ccc4c3CCC(C)(C)O4)C2)c(O)c1 (centres unmarked) = 1.28
• CC1(C)CCc2c(ccc3c2OC[C@@H](c2ccc(O)cc2O)C3)O1 [Compound 1, 3″,4″-dihydroglabridin] = 1.24
• COc1ccc(C2COc3c(ccc4c3CCC(C)(C)O4)C2)c(O)c1 (centres unmarked) = 1.19
• COCOc1ccc(C2COc3c(ccc4c3CCC(C)(C)O4)C2)c(O)c1 (centres unmarked) = 1.11
